- study system: Fibroblast growth factor 22 (Homo sapiens)
- experiment summary: FGF22 ligand-induced thermal stabilization – biophysical, thermal shift, cherry-pick, FGF22 synaptogenesis inhibitor project, dose response (AID 687022)
- settings: recombinant FGF22 thermal shift, SYPRO orange melting
Activity calls are given as the source filed them.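 The calls were made as follows: active = Fitted curve of melting temperature shift crosses the 1.0 threshold at or below the sample's highest valid tested concentration; inconclusive = Flat fit with activity 30 to 70, or invalid fit; inactive = Opposite direction, flat within 30, or no crossing.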
Please state which outcome applies, choosing from TRUE = active, FALSE = inactive

The following molecules have reported results that may help.
{"molecule": "CCc1nnc(NS(=O)(=O)c2ccc(Nc3ccc([N+](=O)[O-])c4nonc34)cc2)s1", "classification": "FALSE"}
{"molecule": "Nc1nnc(CC(=O)N/N=C/c2cc([N+](=O)[O-])cc(Br)c2O)s1", "classification": "TRUE"}

Hi, do you know how O=C(Nc1nccs1)C1CC(=O)N(c2ccc(F)cc2)C1 (centres undefined) came out in this test?
TRUE

Another: `Cc1ccc(CCNc2ncnc(Cl)c2N)cc1`
TRUE
